assay.target: T1, recombinant MBP-E2 fusion protein (Human papillomavirus type 16, UniProt P03120 1-365, limits assumed)
T1 construct: The legend says only 'MBP-E2'
T1 sequence: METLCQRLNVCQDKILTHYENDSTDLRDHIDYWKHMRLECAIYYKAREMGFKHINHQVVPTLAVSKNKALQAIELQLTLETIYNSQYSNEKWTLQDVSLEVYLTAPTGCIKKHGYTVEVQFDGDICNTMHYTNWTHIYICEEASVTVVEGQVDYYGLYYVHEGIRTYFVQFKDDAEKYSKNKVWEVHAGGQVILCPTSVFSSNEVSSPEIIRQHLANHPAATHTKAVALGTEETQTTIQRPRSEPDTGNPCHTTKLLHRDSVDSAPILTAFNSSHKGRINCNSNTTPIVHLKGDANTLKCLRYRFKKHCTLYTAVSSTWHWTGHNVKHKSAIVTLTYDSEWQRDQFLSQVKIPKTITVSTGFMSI
protocol.description: ELISA, plate coated with MBP-E2, purified antibody

>  <binder>
22-1B10 (antibody, V domains shown) VH: QVQLVQSGSELRKPGASVTVSCKASGYTFSNHDMSWVRQAPGQGLEWMGWINSNTGNPTYAQGFTGRFVFSLDTSVSTAYLQISSLKSEDTAVYYCAKGGGICSGSRCYSGWFDSWGKGTLVAVSS VL: QLVLTQSPSASASLGASVKLTCTLSSGHSGYAIAWHQQQPEKGPRYLMKLNSDGTHTKGDGIPDRFSGSSSGAERYLTISSLQSEDEADYYCQTWGTGIQVFGTGTKVTILG

>  <binding result>
binds

$$$$
>  <binder>
22-E2B2 (antibody, V domains shown) VH: QVQLVQSGTEVKKPGASVRVSCKASGYTFTEYYLHWVRQAPGQGLEWMGRINPNSGNTNYAQKFNGRVTMTSDTSVNLAYLEVSGLTSDDTAIYYCTRDDSGAFVYWGQGTLVTVSS VL: ETVLTQSPATLSLSPGERATLSCRSSQVISSYLAWFQQKPGQAPRLLIYDTSNRATGIPARFSGSGSGTDFTLTISSLEPEDFAVYYCQQRTNWPPREKITFGPGTKVDIK

>  <binding result>
binds

$$$$
>  <binder>
22-E2F7 (antibody, V domains shown) VH: QVQLVQSGTEVKKPGASVRVSCKASGYSFTEYYLHWVRQAPGQGLEWMGRINPKSGNTNYAQKLNGRVTMTSDTSVNVAYLEVSGLTSDDTAIYYCTRDDNGAFVYWGQGTLVTVSS VL: ETVLTQSPATLSLSPGERATLSCRSSQVISSYLAWFQQKPGQAPRLLIYDTSNRATGIPARFSGSGSGTDFTLTISSLEPEDFAVYYCQQRINWPPREKITFGPGTKVDIR

>  <binding result>
binds

$$$$
